experiment: Cytotoxicity against human RWPE1 cells after 48 hrs by MTT assay; format: cell-based; conditions: RWPE-1, 48 h
Here, each record is paired with measured pIC50 data.
Please keep in mind that pIC50 is minus log10 of the molar concentration; only the number is needed.

Below: 2 molecules and their reported pIC50.
COc1cc(/C=C2\C(=O)Nc3ccccc32)ccc1OCC(=O)N1CCOCC1 = 4.09
COc1cc(/C=C2\C(=O)Nc3ccccc32)ccc1OCC(=O)N1CCCCC1 = 4.11

Now look at this one.
Query: Give its pIC50 value. Item: CCN(CC)CCNC(=O)c1c(C)[nH]c(/C=C2\C(=O)Nc3ccc(F)cc32)c1C
Reply: 4.64

====

Listed here: items and their measured IC50.
assay: Cytotoxicity against human BT549 cells after 48 hrs by MTT assay; assay type: functional, cell-based; conditions: BT-549, 48 h

COc1cc(/C=C2\C(=O)Nc3ccccc32)ccc1OCC(=O)N1CCCC1 = > 20 µM
COc1cc(/C=C2\C(=O)Nc3ccccc32)ccc1OCC(=O)N1CCCCC1 = > 20 µM

Next item in the queue.
Query: Recorded IC50 for COc1cc(/C=C2\C(=O)Nc3ccccc32)ccc1OCC(=O)N1CC(C)OC(C)C1 (stereo not drawn) , please?
Reply: > 20 µM

Reference source: ChEMBL document CHEMBL3822392
